test: soluble on expression in E. coli; label from the status in PepcDB or PDB records
reported property: soluble on expression in E. coli

biosequence=MSLKKYQLVIVGYGGMGSYHVTLASAADNLEVHGVFDILAEKREAAAQKGLKIYESYEAVLADEKVDAVLIATPNDSHKELAISALEAGKHVVCEKPVTMTSEDLLAIMDVAKRVNKHFMVHQNRRWDEDFLIIKEMFEQKTIGEMFHLESRVHGANGIPGDWRHLKAHGGGMVLDWGVHLLDQLLFLVDSNVKSVSANLSFALGDEVDDGFVTFITFENGITAQIEVGTTNFIKLPRWYVKGTEGTGIIHDWDLSGEIVKPTALAKTSEPTPIKAGQGLTKTMAPPSEEATNTLSLPAPAKLAPSFYNNFVDVLNNTSEPIVQNEEVYQVLKLIEAIFEAAETNRTVHSIEGHHHHHH reported_property="soluble on expression in E. coli" meas_value=soluble
biosequence=MLHTLHRSPWLTDFAALLRLLSEGDELLLLQDGVTAAVDGNRYLESLRNAPIKVYALNEDLIARGLTGQISNDIILIDYTDFVRLTVKHPSQMAW reported_property="soluble on expression in E. coli" meas_value=soluble

---

experiment: soluble on expression in E. coli; label from the status in PepcDB or PDB records
reported property: soluble on expression in E. coli

biosequence=MAHHHHHHMNRGCLLGEYTGRCLGESAHVRSNLICALCCVTRSQIIYIYIYIYFAVVVEEVPIVTCTNIIMSSVVSRREETHFCLRYFRIPSNKKNVFSLLYRQLLFNSLINHCF meas_value="not soluble"
biosequence=MVKLTSIAAGVAAIAATASATTTLAQSDERVNLVELGVYVSD meas_value="not soluble"
biosequence=MAETVGMILCGGFGKRLRPLTEKIPKPLIEIKEGYTILDKQLFDLKNAGINTVYLLTGFLGERIEERYGDNYKGLRIEYVREEKPLGTLNAIRLGMEAIDGEKQCIIRNGDVVADLNIKKMIHLGEMSDYPLTMFITRMQSPYGIVETSGDKIINFREKPLLDYYINAGVYFSKGNLDFGDFESGDIEKTLFPLMAKENKLGYYREDGLFWMAIDTSKELEEIRKEYRNREDKPWGYEKILINTEKYLTKELFIREGYRTSFHYHEEKDETMYIISGSGYIEFDNRKEYFSKNDTIRIEPGERHSIVAMENTVLHEVSTPHLNDTVRVQDYYTRLEHHHHHH meas_value=soluble
biosequence=MNKRIVICADGTWNRPEKDLKVDFPTNVLRLARAISPIAADGKPQQVFYDWGVGSYYDEVIGGATGRGLHKNIMDGYRYIVQNYSPGDEIYLFGFSRGAYTVRCLCGLINNCGILKRPEARLIQQAFDHYKKSSAPFAPSGDKSVEFRHEHCHESREIKFVGVWDTVGAMGIPISFLGLFEDKDEFYDTKIGRNVRVARHALAIDEHRSDFEPTIWQLRDNMDMQQVWFAGAHSNVGGSYLPDKDGSLLSDNALAWMIAEAERFNLSLEPHLTAGLRPNPLATLHDSRRSFYRIKQPYLRPLDPDVAPVLLHRSVKVRWEQDPKYRPKNLQAYLEKFGWPQELIDKLAAALEHHHHHH meas_value=soluble

---

assay: soluble on expression in E. coli; label from the status in PepcDB or PDB records
reported property: soluble on expression in E. coli

biosequence=GERLSMEDAVKLYESDEVEKMGAAANQIMLKWHPEPITTFVIGRNVNYTNFCDTYCRFCAFYRAPGHKEGYVLDDEVILKKIQETIDVGGTEILMQGGTNPDLTIDYYTDLLRNIKERFPNIWMHSFSPAEVWKIAEVSSMSVEEVLRELHEAGLDSMPGGGAEILTEETRLRVSRLKITWEQWINAMKATKKVGMHGTATMVIGFGESFEERALHLQRVRDAQDETECFTAFISWLFQPENTGMYKTKKLTPRDYLKNVAISRLFLDNIPNFQSSWVTMGPEVGKLSLQYGCNDFGSTMIEENVVSAAGTTHKVNTNKILQLIREAGKIPAQR meas_value="not soluble"
biosequence=MGSDKIHHHHHHMIRKIIKIDKEKCNGCGACASACHEGAIDIIDGKAELVREHFCDGLGDCLPECPTGAISFEERDAPAYDEEAVKEAQKKIAAKNRAISSHSGCPGSKIMQIRRTETSEPVKATSTADSGSKLQNWPVQIKLAPVNAPYFNGSKLLIAADCTAYAYAAFHQDFIRNKVTLIGCPKLDQVDYSEKLTAIIQNNSIQSVTIVRMEVPCCGGLEIAAKKALQASGKFIPWQVVTISIDGKIME meas_value="not soluble"

---

test: soluble on expression in E. coli; label from the status in PepcDB or PDB records
reported property: soluble on expression in E. coli

biosequence=MDSSVPMIDLSSGDDEEVEVAMRRSYLLPPVPERPDGFPSLLFGNGNLSRSTLSINQEISMAPSPFSEITVSSQRPLVARSGSNSSEHNLQIKEAVKKKPVADIAHVSGTFVCVCVRGAQKNFYQKYLIATPSIPKLNTFE meas_value=soluble
biosequence=MRSFDFAPLHRASIGFDQIADLMDRVMSSDVGQPSYPPYNIEKTAADAYRISIAVAGFAETDLSVEVKENALVISARKAADEAERTFLHRGIATRAFERRFTLADHVRVTGASHENGMLHIDLKREIPEALKPRRIEIASVKSADTPERIEAKAVN meas_value="not soluble"
biosequence=MNEKWIVERAEREGGRLWLYVNDAPVPLARVTPKRHMLVDSDALAFAYILETDDRFLYVMVPKLWWPELKAALDAEEPVWLRCGERTLELEQFHDELSYLLENIRGNANYGEALEQAVQDVFFEQ meas_value="not soluble"
biosequence=LYVGSLHFNITEDMLRGIFEPFGKIDNIVLMKDSDTGRSKGYGFITFSDSECARRALEQLNGFELAGRPMRVGHVTERLDGG meas_value=soluble
biosequence=MGSDKIHHHHHHMIFIPPFEQGKLLRRYKRFLADVLLDDGTEITIHCPNTGSMRNCLFPGERVWFSTSDNPKRKYAHTWEQAASDEGHIIGINTGRANALAAEAIEAGVISELTGYDRLRREVKYGSENSRIDLLLESEDKPACYIEVKSCTLLEQGQGYFPDAVTTRGQKHLRELMEMVKQGHRAVLLFVVQHTGITTVAAARHIDPEYAELLTQAHQAGVEILAYSCELSPSAAKLIKSCPVKL meas_value="not soluble"
biosequence=GPGSMEEGVDLREGLPEDVLAAVIAAPGQVTVEEARAQLNSSTSFRVDAGLVHLTADGAREQSQMETMLLKLATKIPPTGVSGAQFRAILEDEAPHFQPSAVGALSLKEAVQRYPRLFDVETDTTGKWFVRPAGVGKDGRASVGKNSGPISIINFCSERALMGNQADYVPLHVAMREESVASEGVLRDLVDSEELSKQLQIRFSVRLRPKRPVTNAFCFVDGDEIGLEAVDAIWKEMNLSDKSTRLVARQPTSRKHNSSDIVAPADMPTYAVVERKARELSLTQSVVLQDVIYMCSLRQFSLYADHIAKLNAFPDADVYVCCPSKVKLVAQKQFVPL meas_value="not soluble"
biosequence=MGSDKIHHHHHHMARVKEEADRISEQANSHIENIRRQIEQEKNDWAAEKQKLIEEAKAEGFEQGVALGKAEAMKQYAELIGQANTITEMSRKAVEDKLEDANEEIVELAVALAKKVWQQKSDDKEAFLLLVQQVINEVKEYDDISIYVDPYYYETIFQQKDEIQQLLYKECRLGIYADEKAQKGTCYIETPFGRVDASVDTQLMQLKDKLLTALEAGAAE meas_value="not soluble"
biosequence=MVTLTTNTEGATIYYTLDGSNPTNKSVRYNGRIVVNENSVIKAIAEKEGLTSSAISTFSFVIVNNEPVRIHDIQGKSHLSPYNGKKVYNVEGVVTALDKNGFYIEDNQPDNDPATSEGMYVYKKDANVAVGDLIQVDGVVEEYVGPGYAERFDTDLTTTEIKASRVVVIAKDQVLPAPIVLGENGVKIPDQIIDNDAFGLFDPNEDAIDFYESVEGMRVTMPTPKIIAPQKNGNLYVTVKNGGNKVVTKYGTPVLDENQLNPERLSVKVPRDYVAKVGDTFTGDITGVVGYDYGSFRIAPITELPSVVDGGFKQIGANIQPRLDKLEHHHHHH meas_value=soluble
biosequence=MGSDKIHHHHHHMLIISPKYLNGKIEIEKGERVGLVGKNGSGKTTLILSALCLDQTTSNVTVDDLDFCKEKDYSKISAVLQDVSSQILASTLKDEIELMKRFHSVDDKIARNLMGHYYEVEFNKLSDGYKKRYAIASVLASNPEYILLDEPFANLDDKGVKSVSTIVPKNSLIAEHRIEELRKLVDRVYMIRNNKEINEISKEKLFDIEFLRKEGLRGFSLPKINSELGNEILNVNIDNFTIKIREGEILCLLGRNGSGKTTILRKLSKKIFVIFQEVDLQFFYFTVREIVRSKRVLSLFKLENLADKSPYALSFGQKMRILIASAFSSDSRVIGLDEPSVGMDGEALLSFYEMVKMLKEQKRGLILATHDKDIISLCDTRIVID meas_value="not soluble"
biosequence=MKKTLYIFQNGELRRKDHSLYFETEERKRYIPVENTNDIYIFGEVDVSKRFLEFAAQKEIIVHYFNHYGYYVGSFYPREHLNSGHVVLKQAEHYIDPAKRLELACLFVQGSIRQMERVLKYYRSRLSDPEELEKALQLIEREEGKLSQANTVEQLMAVEGHIREAYYASFDAILRHPDFVFEKRTKRPPHNRLNALISFGNSIVYTMCLSEIYKTYLDPRIGFLHSTNFRRFSLNLDIAEIFKPIIVDRLIFTLVNKRMLSSKHFEKLTNGIVLNEEGRKLFVSELEKKMQTTVQHRHLGKSVSYRRLIRLELYKVQKHILGEKMYEPYAARW meas_value="not soluble"
biosequence=MGSDKIHHHHHHMEPEILFRKIDDLGEGPTYDERRKRVYWVDIRGKKFHYLSLENSEMKTFQSIGMISSIVPTDRDLMAATVDHGLYLIDDAGKHTLLTEVEKDQKSTRFNDGKADPFGNYVAGTMDLEEKRPIGSLYVLTGKTIRRILENLTISNGIAWNTKKKVFYHIDTPKRRVDAYSYDGKMNIERLGTAVDFRNEVGNPDGMTIDADGNLWVAHWGGNRITIHDPERQKKIDEIIFPAQNITSCVFAGNGLRDLYVSSASNGNPDDMGGSLFVVHTDYAGSKTFTFSVP meas_value="not soluble"
biosequence=MNKTELIKNVAQNAEISQKEATVVVQTVVESITNTLAAGEKVQLIGFGTFEVRERAARTGRNPQTGEEMQIAASKVPAFKAGKELKEAVK meas_value=soluble
biosequence=MITPKGTHDAVAKFQKTDLHQDLDYIVLQQRRTQLETLINERESFVKNLCSLFHKIQNTKNYQEFVDVLAENRDLLREIFTVENGFQKQKWISNDDIPQIDWDKFALDINAYIAENDQLLALYEDGLL meas_value="not soluble"
biosequence=RARADKQHVLDMLFSAFEKHQYYNLKDLVDITKQPVVYLKEILKEIGVQNVKGIHKNTWELKPEYRHYQ meas_value=soluble
